Where do the numbers come from? From patent US20220380347A1.

tested on: HCov OC43; assay: HCoV OC43 cytopathic effect (CPE) assay, CellTiter Glo; assay type: cell-based, human coronavirus (HCov) OC43; conditions: read-out: OC43 IC50 (uM) MEDIAN; median; listed as 1160 Isomer 2
reported metric: IC50

Exercise: // query IC50 value for entry N#CN1CC(=O)NCC1C(=O)N(c1ccc(S(F)(F)(F)(F)F)cc1)C(C(=O)NC1CCC(F)(F)CC1)c1cncc(F)c1 (single isomer, unassigned) [Compound 1160 Isomer 2]
Key: 2 to 10 µM

---

target: 229E Mpro (Human coronavirus 229E, UniProt P0C6X1); experiment: 229E Mpro enzymatic assay (standard methods, SARS-CoV2 Mpro assay given as exemplary); assay type: biochemical, human coronavirus (HCov) 229E; conditions: 229E Mpro EC50
Sequence (P0C6X1 2966-3267): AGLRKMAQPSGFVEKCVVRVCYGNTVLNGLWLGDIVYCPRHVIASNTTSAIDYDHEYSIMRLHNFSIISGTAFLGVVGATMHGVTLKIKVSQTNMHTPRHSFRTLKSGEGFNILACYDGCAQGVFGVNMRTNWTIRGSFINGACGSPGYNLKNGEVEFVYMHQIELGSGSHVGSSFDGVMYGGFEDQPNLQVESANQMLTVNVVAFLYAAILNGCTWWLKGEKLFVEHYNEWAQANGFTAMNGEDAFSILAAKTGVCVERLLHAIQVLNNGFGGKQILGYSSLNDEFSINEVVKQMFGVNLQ
pEC50: −log10 of the molar value.
reported metric: pEC50

CN1CCN(C#N)C(C(=O)N(c2ccc(C(C)(C)C)cc2)C(C(=O)NC2CCCCC2)c2cccnc2)C1 (single isomer, unassigned) [Compound 217 Isomer 2]: > 5.70
CC(C)(C)c1ccc(N(C(=O)[C@H]2COCCN2C#N)C(C(=O)NC2CCCCC2)c2cccnc2)cc1 (single isomer, unassigned) [Compound 202 Isomer 1]: > 5.70

Exercise: If you can, please state the reported pEC50 value of CC(C)(C)c1ccc(N(C(=O)C2CS(=O)(=O)CCN2C#N)C(C(=O)NC2CCCCC2)c2cccnc2)cc1 (stereo not drawn) .
Key: > 5.70
